Target: T1, GnRH Bio-peptide 1 (not fully specified)
T1 chain: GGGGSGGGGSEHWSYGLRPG
Assay: ELISA
pEC50: −log10 of the molar value.
property-label: pEC50

INSERT INTO assay_data (binder, value) VALUES
  ('01Tm1 (antibody, V domains shown) VH: DVQLVESGGGLVQPGGSLRLSCAASGRTFNNYVLGWFRQTPGKEREFVAAIRGTGSTTHADSVKGRFTISRDNAKNTVYLQMNSLKPEDTAVYYCAADDAYYPGNLRPQYWGQGTQVTVSS', 9.47),
  ('01Tm4 (antibody, V domains shown) VH: DVQLVESGGGLVQPGGSLRLSCAASGRTFSNYVLGWFRQTPGKEREFVAAIRGTGSTTHADSVKGRFTISRDNAKNTVYLQMNSLKPEDTAVYYCAADDAYYPGNLRPQYWGQGTQVTVSS', 9.49),
  ('01Tm3 (antibody, V domains shown) VH: DVQLVESGGGLVQPGGSLRLSCAASGRTFNAYVLGWFRQTPGKEREFVAAIRGTGSTTHADSVKGRFTISRDNAKNTVYLQMNSLKPEDTAVYYCAADDAYYPGNLRPQYWGQGTQVTVSS', 9.40),
  ('Clone 1 (pGnRH-001) (antibody, V domains shown) VH: QVQLVESGGGLVQAGGSVRLSCTASGRTFNNYVLGWFRQTPGKEREFVAAIRGTGSTTHADSVKGRFTISRDNAKNTVYLQMNSLKPEDTAVYYCAADDAYYPGNLRPQYWGQGTQVTVSS', 9.39),
  ('01Tm2 (antibody, V domains shown) VH: DVQLVESGGGLVQPGGSLRLSCAASGRTFQNYVLGWFRQTPGKEREFVAAIRGTGSTTHADSVKGRFTISRDNAKNTVYLQMNSLKPEDTAVYYCAADDAYYPGNLRPQYWGQGTQVTVSS', 9.49);
